Test system: mice falling off the inverted screen
assaySummary: Mouse Activity and Screen Test Procedure (MAST): screen test (ST)
Assay type: in vivo, Swiss-Webster male mice
conditionsUsed: 10 mg/kg intraperitoneally, one hour postinjection; percent of mice falling off the screen
Rule: Screen Test Failure under 20% gives not met, otherwise met.

compound	group
OC[C@H]1O[C@@H](n2cnc3c(NC4CCOc5ccccc54)ncnc32)[C@H](O)[C@@H]1O (some centres unmarked) [Example 1]	met
Cc1ccc2c(c1C)OCC(Nc1ncnc3c1ncn3[C@@H]1O[C@H](CO)[C@@H](O)[C@H]1O)C2 (some centres unmarked) [Example 10]	not met
COc1cc(OC)c2c(c1)OC(C)(C)CC2Nc1ncnc2c1ncn2[C@@H]1O[C@H](CO)[C@@H](O)[C@H]1O (some centres unmarked) [Example 14]	not met
OC[C@H]1O[C@@H](n2cnc3c(NC4COc5c(Cl)cccc5C4)ncnc32)[C@H](O)[C@@H]1O (some centres unmarked) [Example 5]	met
OC[C@H]1O[C@@H](n2cnc3c(NC4COc5ccccc5C4)ncnc32)[C@H](O)[C@@H]1O (some centres unmarked) [Example 4, N^6-[3-Chromanylamino]adenosine]	not met
CC(C)(C)c1ccc2c(c1)OCC(Nc1ncnc3c1ncn3[C@@H]1O[C@H](CO)[C@@H](O)[C@H]1O)C2 (some centres unmarked) [Example 13]	not met
O=S1(=O)CCC(Nc2ncnc3c2ncn3[C@@H]2O[C@H](CO)[C@@H](O)[C@H]2O)c2ccccc21 (some centres unmarked) [Example 16]	met
COc1ccc2c(c1)CC(Nc1ncnc3c1ncn3[C@@H]1O[C@H](CO)[C@@H](O)[C@H]1O)CO2 (some centres unmarked) [Example 6]	met
